assay: OD615 S. cerevisiae growth inhibition, permissive medium, pilot counter-assay, permissive growth control for S. cerevisiae lifespan shortening project (AID 705); details: OD615, 24 h, at 10 µM, active compounds read high
measurement_label: growth inhibition (%)
Answers are plain numbers, in %.

Answered examples (5):
{"compound": "O=C(NC1=NCCS1)c1csc2ccccc12", "measurement_unit": "%", "growth inhibition": -9.29}
{"compound": "Cc1ccc2c(c1)c1cccc3c1n2CCN3CCC(N)=O", "measurement_unit": "%", "growth inhibition": 4.29}
{"compound": "O=C1c2ccccc2C(O)N1Cc1ccc2c(c1)OCO2 (stereo not drawn)", "measurement_unit": "%", "growth inhibition": 4.13}
{"compound": "Cc1cccc(N2C(=O)SC(N(CC(=O)O)c3cccc(C)c3)C2=O)c1 (stereo not drawn)", "measurement_unit": "%", "growth inhibition": -12.5}
{"compound": "COc1ccc(N2CCN(C(=O)c3ccc(CNc4c(N5CCOCC5)c(=O)c4=O)cc3)CC2)cc1", "measurement_unit": "%", "growth inhibition": 5.2}

Count: 8. Required value per item: growth inhibition.
1. COC(=O)C(C)n1cnc2c(nnn2-c2cccc(Cl)c2)c1=O (stereo not drawn)
2. Cn1c(Cn2c(=O)sc3ccccc32)nnc1SCC(=O)Nc1cccc(Cl)c1
3. Cc1ccc(-c2nc(C#N)c(NCCN3CCCCC3)o2)cc1
4. Cc1cccc(NC(=O)CN2CCN(CC(=O)Nc3cccc(C)c3)CC2)c1
5. CC(Sc1ccc2nnc(-c3ccc(F)cc3)n2n1)C(=O)O (stereo not drawn)
6. CCOC(=O)Cn1c(=O)oc2cc(S(=O)(=O)Nc3c(C)cc(C)cc3C)ccc21
7. CCn1c(SCC(=O)Nc2ccccc2C(=O)OC)nc2c1c(=O)n(C)c(=O)n2C
8. O=C(CSc1ccc2c(c1)OCCO2)NC(=O)NC1CCCC1

## Output
-6.67
-3.44
12.4
-14.3
8.21
-11.4
-6.03
-2.04

Lab note: each compound below needs its growth inhibition filled in.
1. COc1cccc(CN2CCNC(=O)C2CC(=O)O)c1OC (stereo not drawn)
2. O=C(CN1CCN(c2ncccn2)CC1)NCCC1=CCCCC1
3. COc1cc(NS(=O)(=O)c2ccc3c(c2)oc(=O)n3C)cc(OC)c1OC
4. CCOC(=O)N1CCN(C(=O)Cn2ncc3c2-c2ccccc2OC3)CC1
5. Nc1nonc1/C(=N/O)N1CCN(CCO)CC1

## Output
-18.3
-8.09
-3.74
-14
1.46

* * *

For each of the molecules below, state its viability.
assay: growth suppression of beta-catenin knockout HCT116, pilot screen, human colon tumor cells (AID 823); details: CellTiter-Glo, 60 h, at 10 µM, active compounds read low;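 further: 0% = wells killed by 20 µM Hyamine and 100% = untreated DMSO cell wells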
Inconclusive results are not listed.
Answers are plain numbers, in %.

{"molecule": "O=C(CN1CCN(C2CCCCC2)CC1)Nc1ccccc1N1CCCCC1", "result_number": 71.5}

Fill in viability for each of the 3 molecules listed.
1. COc1cc(C(=O)N2CCN(C(=O)c3ccco3)CC2)cc(OC)c1OC
2. O=C(CCCCn1c(=O)[nH]c2ccccc2c1=O)N1CCN(c2ncccn2)CC1
3. Cc1cccc(NC(=O)CC2SC(=NC3CCCCC3)NC2=O)c1 (stereo unspecified)

## Output
100
104
99.2

For each of the molecules below, state viability.
1. COc1ccccc1-c1coc2cc(O)cc(O)c2c1=O
2. Cc1cccc(N2CCN(C(=O)C3CCCN(S(=O)(=O)c4cccc5cccnc45)C3)CC2)c1C (stereo unspecified)
3. C/C(=C\C(=O)c1ccc(C)cc1)Nc1cccc(O)c1
4. CCOc1ccc(N(CC(=O)Nc2nccs2)S(=O)(=O)c2c(C)noc2C)cc1

## Output
1: 93.4; 2: 30.5; 3: 99.2; 4: 97.5

Report viability for each item below.
1. Nc1c(C(=O)CCC(=O)O)oc2ccc(Cl)cc12
2. CCOC(=O)C1CCCCN1Cc1cc(Cl)ccc1O (stereo unspecified)
3. COc1ccc(-n2c(=O)c3ccccc3n(CC(=O)NC3CCCC3)c2=O)c(OC)c1

## Output
100
87
98.2
